# System: MS2 coat protein
# test: apparent KD of MS2 coat protein; higher = weaker reporter binding
# conditionLabel: Eterna round: R107; input ligand: arginine 13.2 mM
Values of apparent KD of MS2 coat protein greater than or equal to 20 nM map to T; values below map to F.

# sequenceEntry, classLabel
data = [
    ("UUGUUGUUUGGAAGGAGCGUGUAUGAUUUAGAACAUGAGGAUCACCCAUGUUGGAGGAUAGCACAGGUAGGUCGCCGGGUGGUGG [11.X]", "F"),
    ("AACAUGAGGAUCACCCAUGUUUUAUGGGAUACCAGAGACGAAAGUCUCCCUUGGCAGCCCAAGCUGCUCCAUACGAAAGUAUGGU [Theophylline A 17]", "F"),
    ("GCGGGACUUUCGGCCGCCACUGAGAGAGUCGUGUGAACAUGAGGAUCACCCAUGUAAUAUAUAUACAGGACCGGGAGGGUUGCGC [4.Q]", "F"),
    ("UCGUCAGGCGCGGCCGCCACUGCGGUGAUGUGACAUGAGGAUCACCCAUGUUGUCAUGUGGCACAUAGGACCGGGUGCCUGGCGA [Exclusion - Tryptophan B Attempt #5 (HarryS)]", "F"),
    ("UACAUGAGGAUCACCCAUGUAUGAAUAGAUACCAGAUAAAAUAAGGUCCCUUGGCAGCUAGUGAAUCGAGGGUGGGUAUCAUGAU [#12 Exclusion-TheophyllineA]", "F"),
    ("GUAUUAACAAAAGUUGAUACAGUGGGUGAACGAGGACCGGUACGGCCGCCACUCGGACAUGAGGAUCACCCAUGUCCAUGUGAAA [AstrosExyTryA#12]", "F"),
    ("GACCGGUUAUAGUGCGAUUGUCUUGUGGAAGGAGCGCAGAGGACUGCAGGUAGGUCGCCACAUGAGGAUCACCCAUGUCAGGAUA [Tirevete]", "T"),
    ("GCUACAUGAGGAUCACCCAUGUCAGCUACACGAGGACCGGUACGGCCGCCACUCGGUAGCGCUCAUCCUCGUGUGUAAGUCAAGU [Xedier]", "T"),
    ("CCCAGUUAGAUCAAAGGAAUUAUACUCGAAGGAGCGUCAUAGUAGGCAGGUAGGUCGCGAGACAUGAGGAUCACCCAUGUAGAGA [azqmullin]", "T"),
    ("GCUACAUGAGGAUCACCCAUGUGUACUGAAGGAGCGGCGAAAACGCCAGGUAGGUCGCAGUAUGUGGCUCUGGGCACGAGAUGGC [#02 Same State - Arginine A]", "T"),
    ("AAUGUAUGGCACAUGAGGAUCACCCAUGUGCGAGGACCGGUACGGCCGCCACUCGGUCAAGGGAUCUUACCUCUAUACAUUAAUG [XTryp A #22]", "F"),
    ("AACAUGAGGACGGAUACCAGUCACAUGAGGAUCACCCAUGUACAUGAGGAUCACCCAUGUGGCCCUUGGCAGCCGCAUGUGAUCA [Exclusion Theophylline B 4]", "T"),
]

Data provenance is the supplement of paper PMC9170038.
